All figures here come from ChEMBL document CHEMBL2396636.

Target: Polyunsaturated fatty acid 5-lipoxygenase (Homo sapiens)
Test: Inhibition of human leukocyte 5-LOX pseudoperoxidase activity assessed as reduction of active ferric ion to inactive ferrous state measured decomposition of 13-(S)-HPODE at 40 uM after 30 mins by iron-xylenol orange staining assay
endpoint name: inhibition (%)
Enter your answer as a number in %; do not include the unit.

Example cases with answers are listed next.
compound=O=C(OCC#CCSc1nnc(-c2cccc3ccccc23)o1)c1cccs1 recorded_number=0
compound="CC(Cc1ccc(O)c(O)c1)C(C)Cc1ccc(O)c(O)c1 (stereo not given)" recorded_number=0
compound="CCC(=O)NC(c1ccco1)c1cc([N+](=O)[O-])c2cccnc2c1O (stereo not given)" recorded_number=0
compound=O=C1O[C@H]([C@@H](O)CO)C(O)=C1O recorded_number=50

Looking for the measured inhibition of CC(/C=C/c1cccc(Oc2ccc(F)cc2)c1)N(O)C(N)=O (stereo not given) , can you help?
100

---

Molecular target: Polyunsaturated fatty acid lipoxygenase ALOX15B (Homo sapiens)
Sequence (whole entry): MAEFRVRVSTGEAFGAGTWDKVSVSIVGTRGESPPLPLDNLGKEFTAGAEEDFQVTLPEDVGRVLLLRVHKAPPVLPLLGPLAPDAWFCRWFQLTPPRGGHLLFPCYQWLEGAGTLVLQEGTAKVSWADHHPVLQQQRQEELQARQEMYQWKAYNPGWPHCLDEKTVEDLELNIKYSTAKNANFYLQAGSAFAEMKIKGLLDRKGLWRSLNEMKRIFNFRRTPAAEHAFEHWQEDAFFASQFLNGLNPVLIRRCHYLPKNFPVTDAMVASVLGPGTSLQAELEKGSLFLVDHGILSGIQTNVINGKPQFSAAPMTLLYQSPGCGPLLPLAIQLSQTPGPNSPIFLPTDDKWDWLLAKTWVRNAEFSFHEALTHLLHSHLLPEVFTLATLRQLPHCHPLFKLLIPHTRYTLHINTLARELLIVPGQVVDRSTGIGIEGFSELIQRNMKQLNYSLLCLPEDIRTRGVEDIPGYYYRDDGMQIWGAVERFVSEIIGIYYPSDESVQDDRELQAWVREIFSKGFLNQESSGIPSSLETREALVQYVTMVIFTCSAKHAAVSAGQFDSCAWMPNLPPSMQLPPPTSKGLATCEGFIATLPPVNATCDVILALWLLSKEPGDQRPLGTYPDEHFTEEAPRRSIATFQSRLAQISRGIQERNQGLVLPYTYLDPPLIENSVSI
Assay: Inhibition of N-terminal His6-tagged human prostate epithelial 15-LOX2 using arachidonic acid as substrate assessed as residual activity at 20 uM measured 2 mins post initiation of pseudoperoxidase assay by UV/vis spectrophotometric analysis in presence of 13-(S)-HPODE
Conditions: Prostate gland
Quick reference: Activity of the listed items.
Respond with a number, then the unit of measure.

Look up Activity: CCC(=O)NC(c1ccco1)c1cc([N+](=O)[O-])c2cccnc2c1O (centres undefined)
100%

Reported Activity, compound CC(/C=C/c1cccc(Oc2ccc(F)cc2)c1)N(O)C(N)=O (centres undefined) : ____
50%

Given "O=C(OCC#CCSc1nnc(-c2cccc3ccccc23)o1)c1cccs1" , state its recorded Activity.
100%

# get_value(readout='Activity', item= CC(Cc1ccc(O)c(O)c1)C(C)Cc1ccc(O)c(O)c1 (centres undefined) )
10%
